The reported numbers originate from PubChem BioAssay AID1322.

Molecular target: UniProt:Q07817
Sequence (Q07817 whole entry, looked up): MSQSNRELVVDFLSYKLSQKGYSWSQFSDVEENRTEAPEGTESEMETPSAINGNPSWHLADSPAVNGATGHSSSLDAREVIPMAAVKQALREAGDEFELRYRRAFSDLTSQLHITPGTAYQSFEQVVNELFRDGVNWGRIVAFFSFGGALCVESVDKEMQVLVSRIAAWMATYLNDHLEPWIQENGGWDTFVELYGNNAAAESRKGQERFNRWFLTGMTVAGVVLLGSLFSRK
Assay: Bcl-XL binding to Bim peptide disruption – biochemical, multiplexed, bead flow cytometry, human Bcl-XL, dose response (AID 1322); further: test concentration not given here
Details: Bead-based flow cytometry, MCF
Activity calls are given as the source filed them. How the calls were made is not given here.
metric: inhibition

compound: CCN(CC)c1ccc(NC(=O)c2cccc(C)c2)cc1S(=O)(=O)Nc1ccccc1OC
metric: inhibition
result: inactive
--
compound: COc1cc(C2Nc3cccc4cccc(c34)N2)cc(OC)c1O
metric: inhibition
result: inactive
--
compound: CCc1cccc(NC(=O)COc2ccccc2)c1
metric: inhibition
result: inactive
--
compound: CCc1nnc(NC(=O)CSc2nnc(COc3ccc(C)cc3)n2-c2ccccc2)s1
metric: inhibition
result: inactive
--
compound: Cc1ccnc(NS(=O)(=O)c2ccc(NC(=O)c3c(-c4ccccc4Cl)noc3C)cc2)n1
metric: inhibition
result: inactive

Parameters: items (list). Returns: inhibition for each item.
1. O=[N+]([O-])c1cccc(S(=O)(=O)NCC2CCCO2)c1 (centres undefined)
2. Cc1ccc(-c2cc(C(=O)Nc3ccccn3)c3ccccc3n2)o1
3. COc1cccc(N2CC(C(=O)Nc3nnc(SCC(=O)c4ccccc4)s3)CC2=O)c1 (centres undefined)
4. Cc1nnc(Sc2cc(NCCCO)c([N+](=O)[O-])c3nonc23)s1
5. Cc1ccc2cc(C)c(Sc3nnnn3-c3ccccc3)nc2c1
6. CCOc1cc(CNc2ccc(N(C)C)cc2)cc(Br)c1OCC(=O)NC(C)(C)C

**Result**
inactive
inactive
inactive
inactive
inactive
inactive

Batch request: inhibition for each of the following compounds.
1. Clc1ccc2c(N/N=C/c3ccccc3Br)ccnc2c1
2. Cc1cc(N)ccc1N1CCCC1
3. CC1=CC(=O)c2ccccc2C1=O
4. Cc1cccc(N=C2NC(=O)/C(=C/C=C/c3ccco3)S2)c1C

**Result**
["inactive", "inactive", "inactive", "inactive"]
